Test system: PC-3 prostate
Assay: NCI tumour cell line growth inhibition, 48 h
measuredParameter: TGI

compound | measuredParameter | reportedValue
CCOC(=O)c1nc2ccccc2nc1Nc1ccc(OC)cc1 | TGI | > 100 µM
OC(Cc1ccc2ccccc2n1)(C(F)(F)Cl)C(F)(F)Cl | TGI | > 10 µM

Attention now turns to another entry.
What does the record list as TGI for CC(C)CCC[C@@H](C)C1CCC2[C@@H]3CCC4C[C@@H](NS(C)(=O)=O)CC[C@]4(C)C3CC[C@@]21C (stereo partly drawn) ?
> 100 µM

---

Measured GI50 values are reported for all entries that follow.
System: U251 CNS

Worked examples follow.
querySmiles | GI50
COc1ccc2nc3cc([N+](=O)[O-])ccc3c(NNc3ccccc3)c2c1 | 8.08 µM
O=C(COc1ccc(OCC(=O)N2C(=O)CN(c3ccccc3)C2=S)cc1)N1C(=O)CN(c2ccccc2)C1=S | > 25 µM
O=C(Nc1cccc(-n2cc(-c3ccncc3)c(-c3ccc(O)c(Cl)c3)n2)c1)c1cc(C(F)(F)F)cc(C(F)(F)F)c1 | 2.54 µM

What does the record list as GI50 for "C=C1C(=O)O[C@H]2[C@H]1CC/C(Cn1cc(-c3cccc(Cl)c3)nn1)=C\CC[C@@]1(C)O[C@@H]21" ?
1.61 µM

What does the record list as GI50 for "O=C(Cc1csc2nc(-c3ccc(Cl)cc3)cn12)N/N=C/c1ccccc1O" ?
1.77 µM

What does the record list as GI50 for "Cc1nc(-c2cnc(NC(C)C)n(C)c2=O)ccc1Oc1ccnc(-c2cnn(C)c2)c1" ?
15.6 µM

What does the record list as GI50 for "Cc1c(-c2ccc(O)cc2)oc(=O)c2ccc(O)cc12" ?
63.8 µM

What does the record list as GI50 for "Cc1ccc(/C=C/c2c(C(=O)/C=C/c3ccc(Cl)cc3)c(C)nc3ccccc23)cc1" ?
1.7 µM

What does the record list as GI50 for "CCCCN=C(N)c1ccc(N2CCCN(c3ccc(C(N)=NCCCC)cc3)CC2)cc1" ?
4.81 µM

---

System: IGROV1 ovarian
Test: NCI tumour cell line growth inhibition, 48 h
measuredParameter: TGI

Worked examples follow.
compound | testedTarget | reportedValue
COC(=O)C1C(=O)O[C@@H](c2ccc(OC)c(OC)c2OC)C1C(=O)OC (mixture of isomers) | IGROV1 ovarian | > 100 µM
C[C@@H]1CCC2C(C)(C)C(/C=C\C=O)C3(C)OC213 (stereo not given in full) | IGROV1 ovarian | > 100 µM
COc1cc(/C=N/c2ccccn2)cc(OC)c1OC | IGROV1 ovarian | > 100 µM
O=C(COc1ccc(OCC(=O)N2C(=O)CN(c3ccccc3)C2=S)cc1)N1C(=O)CN(c2ccccc2)C1=S | IGROV1 ovarian | > 100 µM
CCCCCCCCCCCCCCCCc1c(C(=O)OC)nc(NN)[nH]c1=O | IGROV1 ovarian | > 50 µM

What does the record list as TGI for CCN(CC)CCN1C(=O)C2C3C(=O)CC(C)(CC3C)C2C1=O (stereo not given) ?
> 100 µM

What does the record list as TGI for "NC1=NC(=O)/C(=C/c2ccc3ncccc3c2)S1" ?
> 25 µM

What does the record list as TGI for CCc1cc2c(c3c1CCCC3)CC1(Cc3ccc(C(=O)OC)cc3C1)C2 (stereo not given) ?
> 100 µM

What does the record list as TGI for "O=C(N/C(=C\c1ccccc1Cl)c1nc2ccccc2[nH]1)c1ccccc1" ?
> 100 µM

What does the record list as TGI for "CC(=O)Oc1c(OC(C)C)c(C)c(O[Si](C(C)C)(C(C)C)C(C)C)c2[nH]c3ccccc3c12" ?
> 100 µM

Values compiled from PubChem BioAssay (NCI).
